These measurements were taken from ChEMBL document CHEMBL1127224.

Target: Human immunodeficiency virus type 1 protease (Human immunodeficiency virus 1, UniProt Q72874)
readoutName: pKi
Give bare numbers, as −log10 of the molar value.

Worked set:
**Q:** State its pKi for this molecule: CCC(C)[C@H](NC(=O)[C@@H](C[C@H](O)[C@H](CC1CCCCC1)NC(=O)[C@@H](NC(=O)COc1cccc2ccccc12)C(C)C)C(C)C)C(=O)NCc1ccccn1 (stereo partly specified)
**A:** 7.21

**Q:** Supply reported pKi belonging to this molecule: CC(C)[C@H](C[C@H](O)[C@H](CC1CCCCC1)NC(=O)C(CC(N)=O)NC(=O)c1ccc2ccccc2n1)C(=O)NCC(C)(C)C (stereo partly specified)
**A:** 7.85

**Q:** State its pKi for this molecule: CCC(C)[C@H](NC(=O)[C@@H](C[C@H](O)[C@H](CC1CCCCC1)NC(=O)[C@H](CC(N)=O)NC(=O)COc1cccc2ccccc12)C(C)C)C(=O)NCc1ccccn1 (stereo partly specified)
**A:** 8.40

**Q:** Look up and state reported pKi for CCC(C)[C@H](NC(=O)[C@@H](C[C@H](O)[C@H](CC1CCCCC1)NC(=O)c1ccccn1)C(C)C)C(=O)NCc1ccccn1 (stereo partly specified)
**A:** 8.10

**Q:** Please indicate pKi recorded for CCCCCC(=O)N[C@@H](CC1CCCCC1)[C@@H](O)C[C@H](C(=O)N[C@H](C(=O)NCc1ccccn1)C(C)CC)C(C)C (stereo partly specified)
**A:** 7.33

Dear colleague, could you send me pKi for each of the items below? Thanks.
1. CCC(C)[C@H](NC(=O)[C@@H](C[C@H](O)[C@H](CC1CCCCC1)NC(=O)OC(C)(C)C)C(C)C)C(=O)NCc1ccccn1 (stereo partly specified)
2. CCC(C)[C@H](NC(=O)[C@@H](C[C@H](O)[C@H](CC1CCCCC1)NC(=O)CC(C)(C)C)C(C)C)C(=O)NCc1ccccn1 (stereo partly specified)

**A:**
1. 8.10
2. 7.12

Count: 2. Required value per item: pKi.
1. CCC(C)[C@H](NC(=O)[C@@H](C[C@H](O)[C@H](CC1CCCCC1)NC(=O)[C@H](Cc1c[nH]cn1)NC(=O)COc1cccc2ccccc12)C(C)C)C(=O)NCc1ccccn1 (stereo partly specified)
2. CCC(C)[C@H](NC(=O)[C@@H](C[C@H](O)[C@H](CC1CCCCC1)NC(=O)[C@H](CC(N)=O)NC(=O)c1ccc2ccccc2n1)C(C)C)C(=O)NCc1ccccn1 (stereo partly specified)

**A:**
1. 8.30
2. 8.05
